assaySystem: UniProt P02786
assayText: biochemical
Format: binding
Set-up: His6-tagged TfR1 (a.a. 89-760) (ACRO Biosystems, CD1-H5243 and TFR-C524a); His6; purchased R&D Systems or Acro Biosystems 2474-TR or CD1-H5243
cond: Human TfR1 Ki (nM)
Below: a set of entries, each annotated with reported Ki.
Hi! Could you send only the number? It should be in nM, unit omitted.

CC[C@H](C)[C@@H]1NC(=O)[C@@H]2CSCC(=O)N3CN(CN(C3)C(=O)CSC[C@H](NC(=O)[C@H](CC(N)=O)NC(=O)[C@H](Cc3cccc4ccccc34)NC(=O)[C@H](CC(N)=O)NC(C)=O)C(=O)N[C@@H](CO)C(=O)N3CCC[C@H]3C(=O)N[C@@H](CC(=O)O)C(=O)N[C@@H](C)C(=O)N[C@@H](Cc3c[nH]cn3)C(=O)N[C@@H](CC(C)C)C(=O)NCC(=O)N2)C(=O)CSC[C@@H](C(N)=O)NC(=O)[C@H](Cc2ccc(O)cc2)NC(=O)[C@H](CO)NC1=O [BCY18034, Ac-N[1Nal]N-(SEQ ID NO: 9)]; 10

Query: Ki; subject: CC[C@H](C)[C@@H]1NC(=O)[C@@H]2CSCC(=O)N3CN(CN(C3)C(=O)CSC[C@@H](C(=O)N[C@@H](C)C(N)=O)NC(=O)[C@H](Cc3ccc(O)cc3)NC(=O)[C@H](CO)NC1=O)C(=O)CSC[C@H](NC(=O)[C@H](C)N)C(=O)N[C@@H](CO)C(=O)N1CCC[C@H]1C(=O)N[C@@H](CC(=O)O)C(=O)N[C@@H](C)C(=O)N[C@@H](Cc1c[nH]cn1)C(=O)N[C@@H](CC(C)C)C(=O)NCC(=O)N2 [BCY15468, A-(SEQ ID NO: 9)-A]
103

----------
Below: a set of entries, each annotated with reported Ki.
assaySystem: human TfR1 (Homo sapiens)
Sequence (P02786 89-760): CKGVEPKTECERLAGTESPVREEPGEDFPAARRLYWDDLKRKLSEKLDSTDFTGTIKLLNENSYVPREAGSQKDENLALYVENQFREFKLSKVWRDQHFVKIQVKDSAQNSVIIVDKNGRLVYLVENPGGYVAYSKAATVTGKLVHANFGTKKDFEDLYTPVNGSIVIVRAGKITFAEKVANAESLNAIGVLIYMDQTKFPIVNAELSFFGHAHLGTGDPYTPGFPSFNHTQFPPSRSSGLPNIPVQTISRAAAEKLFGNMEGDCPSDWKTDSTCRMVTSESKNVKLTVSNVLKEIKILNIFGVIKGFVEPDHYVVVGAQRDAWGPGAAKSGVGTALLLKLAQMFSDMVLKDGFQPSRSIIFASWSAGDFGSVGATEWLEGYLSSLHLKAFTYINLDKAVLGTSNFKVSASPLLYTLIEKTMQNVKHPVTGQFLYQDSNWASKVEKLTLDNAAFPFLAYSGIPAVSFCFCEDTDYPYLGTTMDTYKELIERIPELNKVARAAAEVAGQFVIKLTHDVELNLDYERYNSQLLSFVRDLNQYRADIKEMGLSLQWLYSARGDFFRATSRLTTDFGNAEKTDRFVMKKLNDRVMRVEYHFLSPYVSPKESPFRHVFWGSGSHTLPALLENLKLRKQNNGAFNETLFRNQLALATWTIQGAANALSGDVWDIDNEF
assayText: biochemical
Assay type: binding
Parameters: His6-tagged TfR1 (a.a. 89-760) (ACRO Biosystems, CD1-H5243 and TFR-C524a); His6; purchased R&D Systems or Acro Biosystems 2474-TR or CD1-H5243
cond: Human TfR1 Ki (nM)
Starred links: 1 amine or outer side, 2 acyl side, 3 side chain; linkers in the order of their positions; H or OH if unused. Positions of bridges follow the written chain, without caps; N, C: chain ends. Residues, ends and D or L forms follow the SMILES beside them. TATB = O=C(C[*:1])N1CN(C(=O)C[*:2])CN(C(=O)C[*:3])C1

# count of solved cases: 2
CC[C@H](C)[C@@H]1NC(=O)[C@@H]2CSCC(=O)N3CN(CN(C3)C(=O)CSC[C@H](NC(C)=O)C(=O)N[C@@H](CO)C(=O)N[C@@H](C)C(=O)N[C@@H](CC(=O)O)C(=O)N[C@@H](C)C(=O)N[C@@H](Cc3c[nH]cn3)C(=O)N[C@@H](CC(C)C)C(=O)NCC(=O)N2)C(=O)CSC[C@@H](C(N)=O)NC(=O)[C@H](Cc2ccc(O)cc2)NC(=O)[C@H](CO)NC1=O [BCY17987, Ac-(SEQ ID NO: 19)] (Ac-CSADAHLGCISYC-NH2; linker 1-9-13 via TATB); 383 nM
CC[C@H](C)[C@@H]1NC(=O)[C@@H]2CSCC(=O)N3CN(CN(C3)C(=O)CSC[C@H](NC(C)=O)C(=O)N[C@@H](CO)C(=O)N3CCC[C@H]3C(=O)N[C@@H](CC(=O)O)C(=O)N[C@@H](C)C(=O)N[C@@H](Cc3c[nH]cn3)C(=O)N[C@@H](CC(C)C)C(=O)NCC(=O)N2)C(=O)CSC[C@@H](C(N)=O)NC(=O)[C@H](Cc2ccc(O)cc2)NC(=O)[C@H](CO)NC1=O [BCY15891, Ac-(SEQ ID NO: 9)] (Ac-CSPDAHLGCISYC-NH2; linker 1-9-13 via TATB); 94 nM

Continue with the next compound.
Query: Ki; subject: CC[C@H](C)[C@@H]1NC(=O)[C@@H]2CSCC(=O)N3CN(CN(C3)C(=O)CSC[C@H](NC(C)=O)C(=O)N[C@@H](CO)C(=O)N3CC[C@H]3C(=O)N[C@@H](CC(=O)O)C(=O)N[C@@H](C)C(=O)N[C@@H](Cc3c[nH]cn3)C(=O)N[C@@H](CC(C)C)C(=O)NCC(=O)N2)C(=O)CSC[C@@H](C(N)=O)NC(=O)[C@H](Cc2ccc(O)cc2)NC(=O)[C@H](CO)NC1=O [BCY17988, Ac-(SEQ ID NO: 44)]
213 nM
